Reported IC50 on UniProt P35968 for assorted compounds, compiled from publications.

[
  {
    "compound": "Cn1cc(-c2nccc(Oc3cccc(NC(=O)Nc4ccc(Cl)c(C(F)(F)F)c4)c3)n2)cn1",
    "studyTarget": "UniProt P35968",
    "measurementName": "IC50",
    "observedValue": "≤ 10000 nM"
  },
  {
    "compound": "Cc1c(C(=O)Nc2ccc(Oc3ccnc(N)c3)c(F)c2)c(=O)n(-c2ccccc2)n1C",
    "studyTarget": "UniProt P35968",
    "measurementName": "IC50",
    "observedValue": "> 3000 nM"
  },
  {
    "compound": "CC(C)(O)COc1cc(-c2cnc(N3C[C@@H]4C[C@@](C)(NC(=O)c5ncccc5Cl)C[C@@H]4C3)cn2)c2c(C#N)cnn2c1",
    "studyTarget": "UniProt P35968",
    "measurementName": "IC50",
    "observedValue": "> 100 nM"
  },
  {
    "compound": "CN1CCC(c2ccc(C(=O)Nc3n[nH]c4nc(Nc5cccc(F)c5F)ccc34)cc2)CC1",
    "studyTarget": "UniProt P35968",
    "measurementName": "IC50",
    "observedValue": "105 nM"
  }
]

Input line: Given COC(=O)c1ccc2c(c1)NC(=O)N1CC(c3ccc(N(C)C(=O)CN4CCN(C)CC4)cc3)CN=C21 (stereo not shown) , respond with its IC50.
Output line: > 10000 nM

Input line: Given O=C(Nc1cc(F)c(F)c(C(=O)c2ccc3ncc(N4CCOCC4)nc3c2)c1)c1cccc(C(F)(F)F)c1 , respond with its IC50.
Output line: < 100 nM

Input line: Given Cn1cc(-c2cnc3[nH]cc(C(=O)c4cc(NS(=O)(=O)c5ccc(C(F)(F)F)cc5)ccc4F)c3c2)cn1 , respond with its IC50.
Output line: ≤ 10000 nM

Input line: Given COc1cc2nccc(Oc3cc(Cl)c4c(C(=O)N5CC(F)(F)C5)coc4c3)c2cc1C(N)=O , respond with its IC50.
Output line: 200 to 1000 nM

Input line: Given Cn1cc(-c2cc(-c3ccc(N4C5CC6CC4CC(C(=O)Nc4ncccc4Cl)(C6)C5)nc3)c3c(C#N)cnn3c2)cn1 , respond with its IC50.
Output line: ≤ 10 nM

Input line: Given Cc1c(OC[C@H](C)O)cn2ncnc(Oc3ccc(NC(=O)NC4CC4)c(Cl)c3)c12 , respond with its IC50.
Output line: < 50 nM

Input line: Given O=C1NCc2ccccc2N1Cc1c[nH]c2ncccc12 , respond with its IC50.
Output line: ≤ 10000 nM

Input line: Given N#Cc1cnc2[nH]cc(C(=O)c3cccc(NS(=O)(=O)c4ccc(F)cc4F)c3F)c2c1 , respond with its IC50.
Output line: ≤ 10000 nM

Input line: Given CC(F)(F)c1cc(F)cc(NC(=O)Nc2ccc(Oc3ccnc(NC(=O)C4CC4)c3)c(F)c2)c1 , respond with its IC50.
Output line: 10.5 nM

###

Reported IC50 on Vascular endothelial growth factor receptor 2 (Homo sapiens) for assorted compounds, compiled from publications.

Example entries begin here.
[
  {
    "compound": "COc1cc(Nc2nc3c(N4CCCC4c4ccccn4)nccn3n2)cc(OC)c1 (stereo not drawn)",
    "observedValue": "3 to 50 µM"
  },
  {
    "compound": "COc1ccc(NC(=O)N[C@H]2[C@@H]3CN(c4ccc(-c5cc(OCC(C)(C)O)cn6ncc(C#N)c56)cn4)C[C@@H]32)cn1",
    "observedValue": "> 0.1 µM"
  },
  {
    "compound": "Nc1cccc(-c2cnc3[nH]cc(C(=O)c4ccc(Cl)cc4)c3c2)c1",
    "observedValue": "≤ 10 µM"
  },
  {
    "compound": "COc1cc2nccc(Oc3ccc(NC(=O)N4CC[C@@H](O)C4)c(Cl)c3F)c2cc1C(N)=O",
    "observedValue": "0.2 to 1 µM"
  },
  {
    "compound": "O=C(c1c(F)ccc(NS(=O)(=O)C2CC2)c1F)c1c[nH]c2ncc(-c3ccc(F)cc3)cc12",
    "observedValue": "≤ 10 µM"
  }
]

Input line: Given COc1cccc(-c2cc3nccc(Nc4ccc5[nH]ccc5c4C)c3o2)c1 , respond with its IC50.
Output line: < 0.3 µM

Input line: Given CS(=O)(=O)c1ccc(-c2c[nH]c3ncccc23)cc1 , respond with its IC50.
Output line: ≤ 10 µM

Input line: Given O=C(c1cccc(NS(=O)(=O)c2ccc(F)cc2)c1)c1c[nH]c2ncc(Cl)cc12 , respond with its IC50.
Output line: ≤ 10 µM

Input line: Given Cn1cc(-c2cc(-c3ccc(N4C[C@@H]5C[C@@](C)(NC(=O)c6c(F)cccc6Cl)C[C@@H]5C4)nc3)c3c(C#N)cnn3c2)cn1 , respond with its IC50.
Output line: > 0.1 µM

Input line: Given COc1cc2nccc(Oc3ccc4nc(Nc5ccc(Cl)c(F)c5)sc4c3)c2cc1C(N)=O , respond with its IC50.
Output line: 0.2 to 1 µM

Input line: Given Nc1cn2nc(C#Cc3ccc(NC(=O)Nc4cc(C(F)(F)F)ccc4F)cc3)ccc2n1 , respond with its IC50.
Output line: 0.073 µM

###

Reported IC50 on UniProt P35968 for assorted compounds, compiled from publications.
measurementName: IC50 (nM)

A: Cc1ccc(NC(=O)c2cccc(C(F)(F)F)c2)cc1C(=O)Nc1cnc(Nc2ccc(C(=O)NCCN3CCCC3)nc2)nc1
B: C=CC(=O)Nc1cc2c(Nc3ccc(Br)c(F)c3F)ncnc2cc1OCCNC(=O)CCN1CCCCC1
Input line: Parameter check: reported IC50 is higher for which label, A or B ? Write down the label of the entry you select.
Output line: B
(B: 140 nM, A: 21 nM)

A: NC(=O)c1cc2c(Oc3ccc(NC(=O)NC4CC4)c(F)c3)ccnc2cc1OCCN1CCOCC1
B: CC(F)(F)c1cc(NC(=O)Nc2cc(F)cc(Oc3cc(NC(=O)C4CC4)ncn3)c2)ccc1Cl
C: CC(C)(C)c1cc(NC(=O)Nc2ccc(Oc3ncnc4[nH]ncc34)c(F)c2)no1
D: Cn1cc(-c2ccc3c(-c4cc(NCC(O)CO)cc(-c5ncc(F)cc5F)c4)cnn3c2)cn1 (centres unmarked)
Input line: Order the items by recorded IC50; the first position goes to the largest value. Give the order by naming the labels one after another as requested.
Output line: B, A, C, D
(B: 41 nM, A: 16 nM, C: 11 nM, D: 3.82 nM)

###

Reported IC50 on Vascular endothelial growth factor receptor 2 (Homo sapiens) for assorted compounds, compiled from publications.

Example entries begin here.
[
  {
    "structureNotation": "CCCS(=O)(=O)Nc1ccc(F)c(C(=O)c2c[nH]c3nccc(C#N)c23)c1F",
    "IC50": "≤ 10 µM"
  },
  {
    "structureNotation": "O=C1Nc2nc(Cl)ccc2C1=CNc1ccc2ncccc2c1",
    "IC50": "1 to 10 µM"
  },
  {
    "structureNotation": "CN(C)CCCNc1nccn2nc(Nc3cccc(C(F)(F)F)c3)nc12",
    "IC50": "3 to 50 µM"
  }
]

// next item, IC50 requested
Input line: Write down the reported IC50 (system: Vascular endothelial growth factor receptor 2 (Homo sapiens)) of O=C(c1c(F)ccc(NS(=O)(=O)c2ccc(-n3cccn3)cc2)c1F)c1c[nH]c2ncc(Cl)cc12
Output line: ≤ 10 µM

###

Reported IC50 on Vascular endothelial growth factor receptor 2 (Homo sapiens, UniProt P35968) for assorted compounds, compiled from publications.

[
  {
    "compound": "O=C(Nc1ccc(Oc2ncnc3cc(OCCCN4CCOCC4)c4c(c23)OCCO4)c(F)c1)c1cccn(-c2ccc(F)cc2)c1=O",
    "IC50": "≤ 50 nM"
  },
  {
    "compound": "CCOC(=O)N=S(C)(=O)c1ccc2cc1NCCCCNc1nc(ncc1Br)N2 (single isomer, unassigned)",
    "IC50": "289 nM"
  },
  {
    "compound": "COc1cc(OC)cc(N(CCO)c2ccc3ncc(-c4ccc(N5CCN(C(=O)OC(C)(C)C)CC5)cc4)nc3c2)c1",
    "IC50": "407 nM"
  },
  {
    "compound": "Cc1[nH]c2c(c1C(=O)NCC(O)CN1CCCC1)CCC/C2=C1/C(=O)Nc2ccc(F)cc21 (centres unmarked)",
    "IC50": "34 nM"
  },
  {
    "compound": "Nc1cccc(-c2ccnc3[nH]cc(C(=O)c4cc(F)ccc4F)c23)c1",
    "IC50": "≤ 10000 nM"
  },
  {
    "compound": "Cn1cc(-c2nccc(Oc3cccc(NC(=O)Nc4cccc(OC(F)(F)F)c4)c3)n2)cn1",
    "IC50": "≤ 10000 nM"
  }
]

Input line: Write down the reported IC50 (system: Vascular endothelial growth factor receptor 2 (Homo sapiens, UniProt P35968)) of COc1cc(-c2ccc(N3C[C@@H]4C[C@@](C)(NC(=O)c5ncccc5Cl)C[C@@H]4C3)nc2)c2c(C#N)cnn2c1
Output line: 50 to 100 nM

Input line: Write down the reported IC50 (system: Vascular endothelial growth factor receptor 2 (Homo sapiens, UniProt P35968)) of CCc1cnc2[nH]cc(C(=O)c3cccc(O)c3)c2c1
Output line: ≤ 10000 nM

Input line: Write down the reported IC50 (system: Vascular endothelial growth factor receptor 2 (Homo sapiens, UniProt P35968)) of COc1cc2nccc(Oc3ccc(Nc4c(NCc5ccncc5)c(=O)c4=O)c(Cl)c3)c2cc1C(N)=O
Output line: 200 to 1000 nM

Input line: Write down the reported IC50 (system: Vascular endothelial growth factor receptor 2 (Homo sapiens, UniProt P35968)) of CC(C)n1cc(C(=O)Nc2ccc(Oc3ccnc4cc(OCC(C)(C)O)c5c(c34)OCCO5)c(F)c2)c(=O)n(-c2ccc(F)cc2)c1=O
Output line: 500 to 5000 nM

Input line: Write down the reported IC50 (system: Vascular endothelial growth factor receptor 2 (Homo sapiens, UniProt P35968)) of Cn1cc(-c2cc(-c3ccc(N4C[C@@H]5[C@@H](CNC(=O)c6ncc(F)cc6Cl)[C@@H]5C4)nc3)c3c(C#N)cnn3c2)cn1
Output line: ≤ 10 nM

Input line: Write down the reported IC50 (system: Vascular endothelial growth factor receptor 2 (Homo sapiens, UniProt P35968)) of [2H]C([2H])([2H])NC(=O)c1coc2cc(Oc3ccnc4cc(OC)c(C(N)=O)cc34)ccc12
Output line: < 50 nM

Input line: Write down the reported IC50 (system: Vascular endothelial growth factor receptor 2 (Homo sapiens, UniProt P35968)) of CNc1cc(Oc2ccc3c(c2)OCCN3C(=O)Nc2cccc(C(F)(F)F)c2)ncn1
Output line: 29 nM
